- Tested on: Caco-2 monolayer
- test-summary: Caco-2 monolayer transmembrane transport, apical to basolateral
- Type: in vitro ADME, human
- condition-label: RD (rice flour digested products) 400 µg/mL; 40 µM flavonoid; 6 h; A to B; mean ± SD (n = 3)
Marks after values point to notes of the source that are not given here.
Parameter: PappAtoB. Scope: all listed entries.

>>> reading("O=c1c(-c2ccc(O)cc2)coc2cc(O)cc(O)c12")
"14.45 ± 0.09^b × 10^-6 cm/s"
>>> reading("C[C@@H]1O[C@@H](O[C@H]2[C@H](Oc3cc(O)c4c(c3)O[C@H](c3ccc(O)cc3)CC4=O)O[C@H](CO)[C@@H](O)[C@@H]2O)[C@H](O)[C@H](O)[C@H]1O")
"1.80 ± 0.01^b × 10^-6 cm/s"

What reported PappAtoB corresponds to O=c1cc(-c2ccc(O)cc2)oc2cc(O)cc(O)c12 on Caco-2 monolayer? 3.13 ± 0.01^b × 10^-6 cm/s

What reported PappAtoB corresponds to O=c1cc(-c2ccccc2)oc2cc(O)c(O)c(O)c12 on Caco-2 monolayer? 2.28 ± 0.01^a × 10^-6 cm/s

What reported PappAtoB corresponds to O=C1c2c(O)cc(O)cc2OC(c2ccc(O)c(O)c2)C1O (stereo not drawn) on Caco-2 monolayer? 15.66 ± 0.09^a × 10^-6 cm/s

What reported PappAtoB corresponds to Oc1cc(O)c2c(c1)O[C@H](c1ccc(O)c(O)c1)[C@H](O)C2 [(-)-Epicatechin] on Caco-2 monolayer? 37.30 ± 0.04^c × 10^-6 cm/s

What reported PappAtoB corresponds to COc1ccc(-c2coc3cc(O)ccc3c2=O)cc1 on Caco-2 monolayer? 12.01 ± 0.01^a × 10^-6 cm/s

What reported PappAtoB corresponds to COc1ccc([C@@H]2CC(=O)c3c(O)cc(O)cc3O2)cc1O on Caco-2 monolayer? 1.98 ± 0.02^a × 10^-6 cm/s

What reported PappAtoB corresponds to O=C1C[C@@H](c2ccc(O)cc2)Oc2cc(O)cc(O)c21 on Caco-2 monolayer? 5.43 ± 0.06^a × 10^-6 cm/s

###

Parameter: PappAtoB. Scope: all listed entries.
- Tested on: Caco-2 monolayer
- test-summary: Caco-2 monolayer transmembrane transport, apical to basolateral
- Type: in vitro ADME, human
- condition-label: WD (wheat flour digested products) 400 µg/mL; 40 µM flavonoid; 6 h; A to B; mean ± SD (n = 3)
Marks after values point to notes of the source that are not given here.

>>> reading("O=c1cc(-c2ccc(O)cc2)oc2cc(O[C@@H]3O[C@H](CO)[C@@H](O)[C@H](O)[C@H]3O)cc(O)c12 [Apigenin-7-O-glucoside]")
"11.24 ± 0.64^b × 10^-6 cm/s"
>>> reading("O=c1c(O)c(-c2ccc(O)cc2)oc2cc(O[C@@H]3O[C@H](CO)[C@@H](O)[C@H](O)[C@H]3O)cc(O)c12 [Kaempferol-7-O-β-glucoside]")
"3.67 ± 0.15^c × 10^-6 cm/s"

Below: the item to evaluate.
Item under review: Oc1cc(O)c2c(c1)O[C@H](c1ccc(O)c(O)c1)[C@H](O)C2 [(-)-Epicatechin] . Reported PappAtoB? 27.24 ± 0.45^b × 10^-6 cm/s

###

- Test system: Caco-2 monolayer
- test-summary: Caco-2 monolayer transmembrane transport, apical to basolateral
- Assay type: in vitro ADME, human
- condition-label: RD vs no substrate
value-type: Increase in PappAtoB

# example entries with known answers
>>> reading("O=C1C[C@@H](c2ccc(O)cc2)Oc2cc(O)cc(O)c21 [Naringenin]")
"−0.57"
>>> reading("C[C@@H]1O[C@@H](Oc2c(-c3ccc(O)c(O)c3)oc3cc(O)cc(O)c3c2=O)[C@H](O)[C@H](O)[C@H]1O [Quercitrin]")
"−0.73"

I: COc1ccc([C@@H]2CC(=O)c3c(O)cc(O)cc3O2)cc1O [Hesperetin]
II: O=c1c(O)c(-c2ccccc2)oc2cc(O)cc(O)c12 [Galangin]
III: OC[C@H]1O[C@@H](Oc2cc3c(O)cc(O)cc3[o+]c2-c2ccc(O)c(O)c2)[C@H](O)[C@@H](O)[C@@H]1O [Cyanidin-3-O-glucoside]
IV: O=c1cc(-c2ccc(O)cc2)oc2cc(O[C@@H]3O[C@H](CO)[C@@H](O)[C@H](O)[C@H]3O)cc(O)c12 [Apigenin-7-O-glucoside]
V: O=c1cc(-c2ccc(O)cc2)oc2c([C@@H]3O[C@H](CO)[C@@H](O)[C@H](O)[C@H]3O)c(O)cc(O)c12 [Vitexin]
Form: Sort by [Increase in PappAtoB] Order [ ascending ] List the labels, following the order given in the request. I, V, III, IV, II

###

- Tested on: Caco-2 monolayer
- test-summary: Caco-2 monolayer transmembrane transport, apical to basolateral
- Format: in vitro ADME, human
- condition-label: RD (rice flour digested products) 400 µg/mL; 40 µM flavonoid; 6 h; A to B; mean ± SD (n = 3)
Marks after values point to notes of the source that are not given here.
Parameter: PappAtoB. Scope: all listed entries.

# example entries with known answers
>>> reading("OC[C@H]1O[C@@H](Oc2cc3c(O)cc(O)cc3[o+]c2-c2ccc(O)c(O)c2)[C@H](O)[C@@H](O)[C@@H]1O [Cyanidin-3-O-glucoside]")
"7.85 ± 0.07^a × 10^-6 cm/s"
>>> reading("O=c1c(O)c(-c2cc(O)c(O)c(O)c2)oc2cc(O)cc(O)c12")
"9.07 ± 0.01^b × 10^-6 cm/s"
>>> reading("O=c1c(O)c(-c2ccc(O)c(O)c2)oc2cc(O)cc(O)c12")
"6.54 ± 0.03^a × 10^-6 cm/s"
>>> reading("COc1cc(-c2oc3cc(O)cc(O)c3c(=O)c2O[C@@H]2O[C@H](CO[C@@H]3O[C@@H](C)[C@H](O)[C@@H](O)[C@H]3O)[C@@H](O)[C@H](O)[C@H]2O)ccc1O [Isorhamnetin-3-O-rutinoside]")
"5.40 ± 0.09^a × 10^-6 cm/s"
>>> reading("C[C@@H]1O[C@@H](Oc2c(-c3ccc(O)c(O)c3)oc3cc(O)cc(O)c3c2=O)[C@H](O)[C@H](O)[C@H]1O")
"1.47 ± 0.05^a × 10^-6 cm/s"
>>> reading("O=c1cc(-c2ccc(O)cc2)oc2cc(O[C@@H]3O[C@H](CO)[C@@H](O)[C@H](O)[C@H]3O)cc(O)c12 [Apigenin-7-O-glucoside]")
"6.37 ± 0.02^a × 10^-6 cm/s"
>>> reading("O=c1c(O)c(-c2ccc(O)cc2)oc2cc(O[C@@H]3O[C@H](CO)[C@@H](O)[C@H](O)[C@H]3O)cc(O)c12 [Kaempferol-7-O-β-glucoside]")
"1.26 ± 0.02^b × 10^-6 cm/s"
>>> reading("O=c1cc(-c2ccc(O)cc2)oc2c([C@@H]3O[C@H](CO)[C@@H](O)[C@H](O)[C@H]3O)c(O)cc(O)c12")
"25.87 ± 0.04^b × 10^-6 cm/s"
>>> reading("O=c1c(O)c(-c2ccccc2)oc2cc(O)cc(O)c12")
"8.76 ± 0.01^b × 10^-6 cm/s"
>>> reading("Oc1cc(O)c2c(c1)O[C@H](c1ccc(O)c(O)c1)[C@@H](O)C2 [(+)-Catechin]")
"18.75 ± 0.09^b × 10^-6 cm/s"

Item under review: O=C1c2c(O)cc(O)cc2O[C@H](c2cc(O)c(O)c(O)c2)[C@H]1O [Dihydromyricetin] . Reported PappAtoB? 16.38 ± 0.03^b × 10^-6 cm/s

Item under review: COc1cc(-c2oc3cc(O)cc(O)c3c(=O)c2O)ccc1O . Reported PappAtoB? 6.64 ± 0.03^a × 10^-6 cm/s

###

- Tested on: Caco-2 monolayer
- test-summary: Caco-2 monolayer transmembrane transport, apical to basolateral
- Format: in vitro ADME, human
- condition-label: RD vs no substrate
value-type: Increase in PappAtoB

# example entries with known answers
>>> reading("O=c1c(-c2ccc(O)cc2)coc2cc(O)cc(O)c12")
0.21
>>> reading("Oc1cc(O)c2c(c1)O[C@H](c1ccc(O)c(O)c1)[C@@H](O)C2 [(+)-Catechin]")
0.67
>>> reading("O=c1cc(-c2ccccc2)oc2cc(O)c(O)c(O)c12")
"−0.21"
>>> reading("O=c1c(O)c(-c2ccc(O)cc2)oc2cc(O[C@@H]3O[C@H](CO)[C@@H](O)[C@H](O)[C@H]3O)cc(O)c12 [Kaempferol-7-O-β-glucoside]")
0.96
>>> reading("Oc1cc(O)c2c(c1)O[C@H](c1ccc(O)c(O)c1)[C@H](O)C2 [(-)-Epicatechin]")
0.62
>>> reading("COc1ccc(-c2coc3cc(O)ccc3c2=O)cc1")
"−0.49"

I: COc1cc(-c2oc3cc(O)cc(O)c3c(=O)c2O[C@@H]2O[C@H](CO[C@@H]3O[C@@H](C)[C@H](O)[C@@H](O)[C@H]3O)[C@@H](O)[C@H](O)[C@H]2O)ccc1O [Isorhamnetin-3-O-rutinoside]
II: O=c1cc(-c2ccc(O)cc2)oc2cc(O)cc(O)c12
III: O=c1c(O)c(-c2cc(O)c(O)c(O)c2)oc2cc(O)cc(O)c12
Sort by Increase in PappAtoB, descending. List the labels, following the order given in the request. II, III, I
(II: 0.90, III: 0.63, I: −0.31)
